Target: human PAH with the R408W mutation (A375 R408W cells) (Homo sapiens, UniProt P00439, R408W)
Construct: expressed in transfected cells
Sequence (P00439 1-452 R408W): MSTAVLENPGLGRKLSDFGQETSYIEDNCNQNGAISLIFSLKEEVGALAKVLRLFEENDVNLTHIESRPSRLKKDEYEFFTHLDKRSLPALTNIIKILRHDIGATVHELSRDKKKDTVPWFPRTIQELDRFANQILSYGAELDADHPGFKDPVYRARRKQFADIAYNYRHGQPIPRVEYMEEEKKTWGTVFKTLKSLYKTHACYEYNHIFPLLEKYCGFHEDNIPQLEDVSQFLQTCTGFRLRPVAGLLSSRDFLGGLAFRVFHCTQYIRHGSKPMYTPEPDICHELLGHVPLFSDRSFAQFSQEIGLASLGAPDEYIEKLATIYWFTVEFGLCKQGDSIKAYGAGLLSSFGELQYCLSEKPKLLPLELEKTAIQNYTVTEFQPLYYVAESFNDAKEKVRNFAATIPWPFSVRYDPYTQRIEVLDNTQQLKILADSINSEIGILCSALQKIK
Assay: Cell Based Phenylalanine Flux Assay
Settings: A375 cells expressing R408W PAH; 24 hrs with compound, then 20 μM sepiapterin and 800 μM 13C9,15N-Phenylalanine for 4 hours; 13C-Tyrosine by LC-MS; average where tested multiple times
Entries and their measured AC50 follow.

molecule	AC50
Cc1ccc2nc(C3c4nc[nH]c4CCN3C(=O)c3cnn4cc(CN(C)C)ccc34)oc2c1 (centres unmarked)	1 to 5 µM
O=C(N1CCc2[nH]cnc2C1c1nc2cc(F)ccc2o1)C(F)(F)C1(O)CCC1 (centres unmarked)	1 to 5 µM
CN(C)CCCOc1ccc2c(C(=O)N3CCc4[nH]cnc4C3c3nc4cc(F)ccc4o3)cnn2c1 (centres unmarked)	1 to 5 µM
O=C(c1nnc(-c2cnn(CC(F)(F)F)c2)o1)N1CCc2[nH]cnc2C1c1nc2cc(F)ccc2o1 (centres unmarked)	1 to 5 µM
CC(C)(O)c1cc(C(=O)N2CCc3[nH]cnc3C2c2nc3ccc(F)cc3o2)on1 (single isomer, unassigned) [4R enantiomer of 2-{5-[4-(6-fluoro-1,3-benzoxazol-2-yl)-1H,4]	≥ 5 µM
O=C(C1CN(c2ccccn2)C1)N1CCc2[nH]cnc2C1c1nc2cc(F)ccc2o1 (centres unmarked)	≥ 5 µM
CN(C)Cc1nnc(C(=O)N2CCc3[nH]cnc3[C@@H]2c2nc3cc(F)ccc3o2)o1 (single isomer, unassigned)	≥ 5 µM
Cn1cnnc1C(=O)N1CCc2[nH]cnc2C1c1nc2cc(F)ccc2o1 (centres unmarked)	1 to 5 µM
